tgt: T1, delta opioid receptor (Homo sapiens), P41143
T1 chain: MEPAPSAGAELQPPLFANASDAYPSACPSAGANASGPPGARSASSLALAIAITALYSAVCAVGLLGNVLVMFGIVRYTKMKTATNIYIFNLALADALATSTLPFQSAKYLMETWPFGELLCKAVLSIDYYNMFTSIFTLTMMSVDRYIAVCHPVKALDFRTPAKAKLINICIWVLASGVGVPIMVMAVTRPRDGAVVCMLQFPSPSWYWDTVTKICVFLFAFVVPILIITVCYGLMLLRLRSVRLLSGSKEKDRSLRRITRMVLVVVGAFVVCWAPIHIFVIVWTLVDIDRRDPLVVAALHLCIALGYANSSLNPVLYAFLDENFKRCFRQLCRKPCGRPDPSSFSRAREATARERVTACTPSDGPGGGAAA
assay explanation: radioligand competition
condition label: modification not given
measured property: Ki (nM)

Look over these answered cases.
YAGFLW [ligand 8] = 0.6
YAGFMW [ligand 7] = 2.9

I. YAGFMALW [ligand 2]
II. YAGFMPLW [ligand 5]
Choose between I and II : whose measured Ki value is numerically larger? Output the label that corresponds to your choice.
I
